Molecular target: TOP2B C88Y (Homo sapiens, UniProt Q02880, C93Y)
Construct: Using recombinant full-length human TOP2A and TOP2B enzymes; YFP (N, cleaved yes)
Sequence (Q02880 1-1621 isoform Q02880-2 C88Y): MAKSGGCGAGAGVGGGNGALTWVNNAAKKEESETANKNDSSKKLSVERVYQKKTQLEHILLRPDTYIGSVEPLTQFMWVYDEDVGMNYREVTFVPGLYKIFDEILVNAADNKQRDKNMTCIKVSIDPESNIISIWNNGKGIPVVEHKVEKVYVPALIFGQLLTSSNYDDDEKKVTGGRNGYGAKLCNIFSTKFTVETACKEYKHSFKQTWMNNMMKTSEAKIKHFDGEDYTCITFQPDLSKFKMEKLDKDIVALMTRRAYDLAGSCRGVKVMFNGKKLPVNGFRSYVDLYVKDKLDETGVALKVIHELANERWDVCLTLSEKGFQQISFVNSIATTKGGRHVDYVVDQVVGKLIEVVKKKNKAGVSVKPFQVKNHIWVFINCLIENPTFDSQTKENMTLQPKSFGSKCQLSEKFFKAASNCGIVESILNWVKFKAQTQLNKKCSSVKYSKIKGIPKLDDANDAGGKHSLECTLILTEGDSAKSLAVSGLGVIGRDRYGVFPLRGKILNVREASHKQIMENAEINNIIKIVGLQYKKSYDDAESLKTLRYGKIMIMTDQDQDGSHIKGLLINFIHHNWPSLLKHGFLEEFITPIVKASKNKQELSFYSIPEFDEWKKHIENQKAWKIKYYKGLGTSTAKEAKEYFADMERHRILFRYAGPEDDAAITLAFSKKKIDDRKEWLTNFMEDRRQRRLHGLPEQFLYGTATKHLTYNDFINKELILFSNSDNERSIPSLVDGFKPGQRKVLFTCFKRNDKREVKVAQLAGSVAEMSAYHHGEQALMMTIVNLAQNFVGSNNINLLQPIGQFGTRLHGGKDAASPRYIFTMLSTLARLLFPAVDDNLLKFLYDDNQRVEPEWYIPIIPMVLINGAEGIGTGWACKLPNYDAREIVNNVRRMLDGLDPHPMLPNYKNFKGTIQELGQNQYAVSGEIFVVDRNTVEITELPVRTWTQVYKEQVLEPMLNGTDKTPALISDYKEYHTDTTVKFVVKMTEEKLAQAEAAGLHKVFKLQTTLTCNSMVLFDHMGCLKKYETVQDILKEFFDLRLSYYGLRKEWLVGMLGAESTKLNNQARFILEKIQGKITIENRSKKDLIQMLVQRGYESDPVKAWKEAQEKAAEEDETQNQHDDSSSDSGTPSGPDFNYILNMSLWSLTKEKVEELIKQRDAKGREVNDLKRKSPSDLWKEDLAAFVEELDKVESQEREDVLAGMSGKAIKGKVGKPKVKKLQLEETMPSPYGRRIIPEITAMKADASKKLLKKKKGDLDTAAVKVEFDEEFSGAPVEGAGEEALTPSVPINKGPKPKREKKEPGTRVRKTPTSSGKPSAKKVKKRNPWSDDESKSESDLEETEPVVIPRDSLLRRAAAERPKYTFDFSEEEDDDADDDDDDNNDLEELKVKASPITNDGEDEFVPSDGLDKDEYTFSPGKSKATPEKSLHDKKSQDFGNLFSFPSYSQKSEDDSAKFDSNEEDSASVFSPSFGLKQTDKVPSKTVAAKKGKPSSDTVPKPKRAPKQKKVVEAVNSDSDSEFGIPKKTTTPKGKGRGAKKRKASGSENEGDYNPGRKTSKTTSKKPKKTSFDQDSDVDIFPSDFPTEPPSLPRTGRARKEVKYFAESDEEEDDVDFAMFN
Assay: ATPase activity of TOP2B C88Y mutant
Measurement Name: pIC50
Lab note: report pIC50 as minus log10 of the concentration in molar units, number only.

INSERT INTO assay_data (compound, recorded_value) VALUES
  ('CCCc1cc(=O)oc2c(C(=O)N3CCCc4ccccc43)c(OCCN3CCN(C)CC3)ccc12 [topobexin (9)]', 5.73);

Lab note: next compound to report on.
Which value of pIC50 has been reported for CCCc1cc(=O)oc2c(C(=O)N3CCCc4ccccc43)c(OC)cc(OC)c12 [BNS-22] in the records?
5.81

----------
Experiment: Plasma pharmacokinetics in rabbits (LC-MS/MS)
Assay type: in vivo, rabbit
Settings: rabbit, plasma, intravenous, 10 mg/kg, 20 min; individual subjects
Measurement Name: concentration at 20 min (µM)
Your answer should be a plain number; it is taken to be in µM.

Which concentration at 20 min value belongs to `CCCc1cc(=O)oc2c(C(=O)N3CCCc4ccccc43)c(OCCN3CCN(C)CC3)ccc12` ?
10.5

----------
Tested on: neonatal rat ventricular cardiomyocytes (NVCM)
Experiment: Inherent toxicity (LDH release) in NVCM
Assay type: cell-based
Design: key: % of total LDH activity
Details: compound alone 10 µM; NVCM; Suppl.Fig.4
Measurement Name: LDH release (inherent toxicity), mean of independent replicates
Please respond with just the number, no unit label.

Example results:
INSERT INTO measurements (compound, recorded_value) VALUES
  ('CCCCc1cc(=O)oc2c(C(=O)N3CCCc4ccccc43)c(OCCO)ccc12 [5d]', 19.8205),
  ('CCCOc1ccc2c(CCC)cc(=O)oc2c1C(=O)N1CCCc2ccccc21 [4c]', 23.8379),
  ('CCCCc1cc(=O)oc2c(C(=O)N3CCCc4ccccc43)c(OCCC)ccc12 [4d]', 31.7424),
  ('CCc1cc(=O)oc2c(C(=O)N3CCCc4ccccc43)c(OCCO)ccc12 [5b]', 14.5134);

Suppose we examine the compound CCCc1cc(=O)oc2c(C(=O)N3CCCc4ccccc43)c(OCCO)ccc12 [5c] ; what LDH release (inherent toxicity), mean of independent replicates value has been reported?
18.571

And the next one, CCc1cc(=O)oc2c(C(=O)N3CCCc4ccccc43)c(OC)ccc12 [3b] ?
15.3649

Follow-up item: CCCc1cc(=O)oc2c(C(=O)N3CCCc4ccccc43)c(O)ccc12 [2c]
16.3877

Also check CCCc1cc(=O)oc2c(C(=O)N3CCCc4ccccc43)c(OC)cc(OC)c12 [BNS-22]
16.9772

For Cc1cc(=O)oc2c(C(=O)N3CCCc4ccccc43)c(O)ccc12 [2a] then?
13.7502

Cool, now COc1ccc2c(C)cc(=O)oc2c1C(=O)N1CCCc2ccccc21 [3a]
15.937

What do we get for CCCOc1ccc2c(CC)cc(=O)oc2c1C(=O)N1CCCc2ccccc21 [4b] ?
17.7301

Okay, and CCCCc1cc(=O)oc2c(C(=O)N3CCCc4ccccc43)c(OC)cc(OC)c12 [1d] ?
20.4098

What about this compound? CCCc1cc(=O)oc2c(C(=O)N3CCCc4ccccc43)c(OC)ccc12 [3c]
16.4282

And the next one, Cc1cc(=O)oc2c(C(=O)N3CCCc4ccccc43)c(OCCO)ccc12 [5a] ?
15.8869
